Kindly supply the reported %Inh values for the records listed here.
Tested on: ROCK1
CONDITION_NOTES: concentration: 1 μM,replicates: in singlicate; n = 1;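 also: KINOMEscan kinase panel screen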
Numbers only, in %.

CHEMICAL_STRUCTURE	UOM	VALUE_MEASURED
O=C(Nc1cccc(C(F)(F)F)c1)c1cccc(Oc2ccc3nccn3n2)c1	%	33

I'm hoping you can list %Inh for every molecule here, please.
1. COc1cc2c(Nc3ccc(NC(=O)c4ccccc4)cc3)ncnc2cc1OCCCN1CCOCC1
2. CS(=O)(=O)c1cccc(CNc2nc(Nc3ccc4c(c3)[C@@H]3C[C@@H]4CNC3=O)ncc2C(F)(F)F)c1
3. NC(=O)Nc1sc(-c2ccc(F)cc2)cc1C(N)=O
4. Cn1ccc2ncnc(Oc3ccc(NC(=O)Nc4cc(C(C)(C)C)on4)c(Cl)c3)c21

Reply:
[1, 0, 14, 3]

* * *

System: DCAMKL1
Construct: gene DCLK1
CONDITION_NOTES: concentration: 1 μM,replicates: in singlicate; n = 1
# note: boundary value 4% maps to condition not met; %Inh below it maps to condition met

MOLECULE	CLASSIFICATION
NC(=O)Nc1sc(-c2ccc(F)cc2)cc1C(N)=O [GW789449]	condition met
O=C(Nc1n[nH]c2cc(-c3ccco3)ccc12)C1CC1 [SB-737447]	condition not met
CSc1nccc(-c2c(-c3ccc(F)cc3)ncn2CCCN2CCOCC2)n1.Cl [SB-217146]	condition not met
O=C(NCC1CC1)c1ccc(-c2cc(C(=O)NC3CC3)ccc2F)cc1 [GW810445]	condition met
Cl.c1ccc(Oc2ccc(Nc3ccnc4cc(-c5ccc(CN6CCNCC6)o5)ccc34)cc2)nc1 [GW567142]	condition not met

Attention now turns to another entry.
Query: Could you please tell me whether %Inh recorded for Cl.Nc1n[nH]c2cc(-c3ccccn3)ccc12 [GSK2189892] is less than 4%?
Reply: condition not met

* * *

Kindly supply the reported %Inh values for the records listed here.
Test system: p38-alpha
Construct: gene MAPK14
CONDITION_NOTES: concentration: 1 μM,replicates: in singlicate; n = 1
Give bare numbers, in %.

For orientation, consider the following solved cases.
CHEMICAL_STRUCTURE	%Inh [%]
O=C(Nc1ccc(Oc2ccc3nc(NC(=O)C4CC4)cn3n2)c(F)c1)c1cccn(-c2ccccc2)c1=O	4
O=c1[nH]cc(-c2ccc(O)cc2)c2sc(-c3ccncc3)cc12	0
COc1cc2ncn(-c3cc(OCC4CCCCC4)c(C(N)=O)s3)c2cc1OC	0

Please find the next molecule below.
Query: Could you share which %Inh value was measured for CN1CCN(CCNc2nc3cc(Oc4ccc(NC(=O)Nc5cc(C(F)(F)F)ccc5F)cc4)ccc3[nH]2)CC1.Cl.Cl ?
Reply: 0

* * *

Test system: RSK1(Kin.Dom.2-C-terminal)
Construct: gene RPS6KA1
CONDITION_NOTES: concentration: 1 μM,replicates: in singlicate; n = 1
REPORTED_ENDPOINT: %Inh (%)
Answers are plain numbers, in %.

COMPOUND	TARGET_OR_SYSTEM	%Inh [%]
COC(=O)c1cccc(NC(=O)NC2CCN(c3ccnc(Nc4cc(OC)c(OC)c(OC)c4)n3)C2)c1 (centres unmarked)	RSK1(Kin.Dom.2-C-terminal)	5
COc1cc2nccc(Nc3ccc(Oc4ccccc4)cc3)c2cc1OC.Cl	RSK1(Kin.Dom.2-C-terminal)	0
Cc1nnc(-c2ccc3occ(-c4ccc(S(C)=O)cc4)c3n2)o1 (centres unmarked)	RSK1(Kin.Dom.2-C-terminal)	14
CCN1CCN(CCCC(=O)Nc2n[nH]c3nc(-c4ccc(O)cc4)c(Br)cc23)CC1	RSK1(Kin.Dom.2-C-terminal)	0

Please find the next compound below.
Query: State its %Inh on RSK1(Kin.Dom.2-C-terminal): N#Cc1cccc(C(=O)NC2CCN(c3ccnc(Nc4ccc(F)cc4)n3)C2)c1 (centres unmarked)
Reply: 0

* * *

Kindly supply the reported %Inh values for the records listed here.
System: AKT2
CONDITION_NOTES: concentration: 1 μM,replicates: in singlicate; n = 1
One number for each entry, in %.

For orientation, consider the following solved cases.
COMPOUND	REPORTED_ENDPOINT	VALUE_MEASURED
CCN1CCN(CCCC(=O)Nc2n[nH]c3nc(-c4ccc(O)cc4)c(Br)cc23)CC1 [SB-731579]	%Inh	0
Cn1ccc2ncnc(Oc3ccc(NC(=O)Nc4cncc(C(F)(F)F)c4)c(Cl)c3)c21	%Inh	13
CS(=O)c1ccc(-c2coc3ccc(-c4n[nH]c(=O)o4)cc23)cc1 (centres unmarked)	%Inh	0
Cc1ccc(Nc2ccnc(Nc3ccc4c(c3)CS(=O)(=O)C4)n2)cc1O.Cl [GW579362]	%Inh	0

I'm hoping you can list %Inh for every compound here, please.
1. Cc1ccc(C(=O)Nc2ccc(Oc3ccc4nc(NC(=O)C5CC5)cn4c3)c(F)c2)c(=O)n1-c1ccccc1
2. CC(C)c1nc(-c2cccc(NS(=O)(=O)c3ccccc3)c2)c(-c2ccnc(Nc3ccc4c(c3)CN(C)CC4)n2)s1 [GSK1649598]

Reply:
1: 0; 2: 4

I'm hoping you can list %Inh for every compound here, please.
1. Cc1ccn2nc(-c3ccc(F)cc3)c(-c3ccncc3)c2c1.Cl [GW457859]
2. O=C(Nc1ccccc1)c1cccc(Oc2ccc3nccn3n2)c1

Reply:
[0, 0]

* * *

Test system: BRSK2
CONDITION_NOTES: concentration: 1 μM,replicates: in singlicate; n = 1
REPORTED_ENDPOINT: %Inh (%)
One number for each entry, in %.

For orientation, consider the following solved cases.
MOLECULE	UOM	%Inh
COc1cc2nccc(Nc3ccc(Oc4ccccc4)cc3)c2cc1OC.Cl	%	0
O=C(Nc1ccccc1)c1cccc(Oc2ccc3nccn3n2)c1	%	0
O=C(NOCC1CC1)c1cc(Br)c(F)c(F)c1Nc1ccc(I)cc1Cl	%	0
Cn1ccc2ncnc(Oc3ccc(NC(=O)Nc4cccc(C(F)(F)F)c4)c(F)c3)c21	%	2

I'm hoping you can list %Inh for every molecule here, please.
1. Cn1ccc2ncnc(Oc3ccc(NC(=O)Nc4cc(C(C)(C)C)on4)c(Cl)c3)c21
2. CCn1c(-c2nonc2N)nc2cncc(Br)c21
3. CN1CCN(CCCNc2nccc(-c3c(-c4ccc(F)cc4)nn4cc(C(N)=O)ccc34)n2)CC1
4. C[C@@H]1CNc2c(sc3ccc4nc(-c5ccncc5)ccc4c23)C(=O)N1
5. O=C(Nc1cccc(C(F)(F)F)c1)c1cccc(Oc2ccc3nccn3n2)c1
6. Cl.c1ccc(Oc2ccc(Nc3ccnc4cc(-c5ccc(CN6CCNCC6)o5)ccc34)cc2)nc1

Reply:
[0, 0, 29, 59, 100, 0]

I'm hoping you can list %Inh for every molecule here, please.
1. CN1CCN(CCNc2nc3cc(Oc4ccc(NC(=O)Nc5cc(C(F)(F)F)ccc5F)cc4)ccc3[nH]2)CC1.Cl.Cl
2. CCNCC(Cc1ccccc1)NC(=O)c1cc(Br)c(-c2ccnc3[nH]ccc23)s1.Cl.Cl (stereo not drawn)
3. CCOC(=O)N1CCC(n2cnc(-c3ccc(F)cc3)c2-c2ccnc(N)n2)CC1
4. CC(=O)Nc1ccc(-c2cc3ncnc(SCC(=O)O)c3s2)cc1

Reply:
6
0
19
3

I'm hoping you can list %Inh for every molecule here, please.
1. CCN1CCN(CCCC(=O)Nc2n[nH]c3nc(-c4ccc(O)cc4)c(Br)cc23)CC1
2. Nc1nccc(-c2ccc3c(N)n[nH]c3c2)n1
3. CNC(=O)c1ccccc1Nc1nc(Nc2cccc(CS(C)(=O)=O)c2)ncc1C.O=CO
4. N#Cc1cccc(C(=O)NC2CCN(c3ccnc(Nc4ccc(F)cc4)n3)C2)c1 (stereo not drawn)

Reply:
54
15
79
0

* * *

Kindly supply the reported %Inh values for the records listed here.
System: MUSK
CONDITION_NOTES: concentration: 1 μM,replicates: in singlicate; n = 1

For orientation, consider the following solved cases.
MOLECULE	VALUE_MEASURED
CC(C(=O)NC1CCN(c2ccnc(Nc3ccc(F)cc3)n2)C1)c1ccc(Cl)cc1 (centres unmarked)	6%
CNC(=O)c1ccccc1Nc1nc(Nc2cccc(CS(C)(=O)=O)c2)ncc1C.O=CO	69%
Cc1ccc(C(=O)Nc2ccc(Oc3ccc4nc(NC(=O)C5CC5)cn4c3)c(F)c2)c(=O)n1-c1ccccc1	99.8%
Nc1nccc(-c2ccc3c(N)n[nH]c3c2)n1	9%
Cc1ccc(CC(=O)N2CCc3cc(-c4cn(C)c5ncnc(N)c45)ccc32)cc1	0%

I'm hoping you can list %Inh for every molecule here, please.
1. Cc1ccc(Nc2ccnc(Nc3ccc4c(c3)CS(=O)(=O)C4)n2)cc1O.Cl
2. O=C(Nc1cccc(Oc2ccc3nccn3n2)c1)Nc1cccc(C(F)(F)F)c1
3. Cl.c1ccc(Oc2ccc(Nc3ccnc4cc(-c5ccc(CN6CCNCC6)o5)ccc34)cc2)nc1
4. CN(c1ccc2c(c1)nc(NCc1ccc(F)cc1)n2C)c1ccnc(Nc2ccc(CS(C)(=O)=O)cc2)n1.Cl
5. Cn1ccc2ncnc(Oc3ccc(NC(=O)Nc4cccc(C(F)(F)F)c4)c(Cl)c3)c21
6. O=c1[nH]cc(-c2ccc(O)cc2)c2sc(-c3ccncc3)cc12

Reply:
53%
51%
0%
51%
94.6%
0%
